What PGE2 EC50 with compound was measured for each of the following?
- target.desc: UniProt:P43116
- test.name: EP2 receptor modulators, dose response, cell-based, human EP2, PGE2 EC50 shift (AID 1421)
- assay.context: EP2-expressing cells, PGE2 EC50 shift by compound; measured here: PGE2 EC50 at 6.7 uM compound
Write down the numeric answer in nM and omit the unit.

So, Cc1cc(NC(=O)Cn2nnc3sc4c(c3c2=O)CCC(C(C)(C)C)C4)no1 (stereo not drawn) ? Its PGE2 EC50 with compound was 0.98

Short answer for COc1cc(C)c(C(=O)Oc2cc(C)c(C(=O)O)c(O)c2C)c(OC)c1C : PGE2 EC50 with compound was 0.98

The compound Cc1cc(C)c(C#N)c(Oc2ccccc2Br)n1 showed PGE2 EC50 with compound equal to 1.01

* * *

- target.desc: Prostaglandin E2 receptor EP2 subtype (Homo sapiens) (UniProt P43116)
- Sequence (P43116 whole entry, looked up): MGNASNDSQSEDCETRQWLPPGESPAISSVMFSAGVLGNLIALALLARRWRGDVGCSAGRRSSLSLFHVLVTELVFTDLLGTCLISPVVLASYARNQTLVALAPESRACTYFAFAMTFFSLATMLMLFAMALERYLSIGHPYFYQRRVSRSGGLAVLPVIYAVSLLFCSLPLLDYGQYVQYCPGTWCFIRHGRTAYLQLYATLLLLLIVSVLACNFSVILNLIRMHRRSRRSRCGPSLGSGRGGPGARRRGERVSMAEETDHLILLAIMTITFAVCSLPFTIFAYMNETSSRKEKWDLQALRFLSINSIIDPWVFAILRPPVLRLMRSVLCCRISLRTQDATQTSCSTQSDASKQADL
- test.name: EP2 receptor modulators, dose response, cell-based, human EP2, PGE2 EC50 shift (AID 1421)
- assay.context: EP2-expressing cells, PGE2 EC50 shift by compound; measured here: PGE2 EC50 at 6.7 uM compound
metric: PGE2 EC50 with compound (nM)
The reply should be a number in nM, with the unit left off.

The compound listed as CCSc1ncnc2sc3c(c12)CCC3 shows PGE2 EC50 with compound equal to 0.94

# PGE2 EC50 with compound of CCc1nc(SCC(=O)Nc2nc3c(s2)CCCC3)c2ccccc2n1 = 1.51

// sample O=c1c2ccccc2c2ccccc2c(=O)n1Cc1ccco1 , its PGE2 EC50 with compound was 1.09

Field PGE2 EC50 with compound (entry O=S(=O)(Nc1ccccc1N1CCCCC1)c1ccc(Cl)s1 ) reads 1.49

Please fill in: PGE2 EC50 with compound reported for Cc1ccc(-c2nnn(CC(=O)N(Cc3cccs3)C(C(=O)NC3CCCC3)c3ccncc3)n2)cc1 (stereo not given) = 0.72

* * *

- target.desc: Prostaglandin E2 receptor EP2 subtype (Homo sapiens)
- test.name: EP2 receptor modulators, dose response, cell-based, human EP2, PGE2 EC50 shift (AID 1421)
- assay.context: EP2-expressing cells, PGE2 EC50 shift by compound; measured here: PGE2 EC50 at 6.7 uM compound
Response key: 1 (yes) means PGE2 EC50 with compound >= 1 nM; 0 (no) means PGE2 EC50 with compound < 1 nM.

Exercise: Could you please find out whether CCOc1ccc(NC(=O)CSc2ncnc3c2sc2ccccc23)cc1 has PGE2 EC50 with compound that meets 1 nM or exceeds it?
Key: 1 (yes)

Exercise: API: above_or_equal(metric=PGE2 EC50 with compound, cutoff=1 nM) for item O=C(Nc1ccccc1Oc1ccccc1)c1cnccn1
Key: 0 (no)

Exercise: Hello, I need to know if Cc1nc2c3cc(F)ccc3n(Cc3ccccc3)c2s1 has measured PGE2 EC50 with compound not below 1 nM. Thanks!
Key: 0 (no)

Exercise: Is PGE2 EC50 with compound for CCc1ccc(OCc2n[nH]c(=S)n2C(C)CCCC(C)C)cc1 (stereo not given) at or above 1 nM?
Key: 1 (yes)

Exercise: Threshold query (PGE2 EC50 with compound >= 1 nM) on CC1=CCc2c(cc3oc(C)cc(=O)c3c2O)OC1
Key: 1 (yes)

Exercise: # check: PGE2 EC50 with compound of Cc1noc(C)c1CSc1nc2ccccc2c(=O)n1-c1ccc(Cl)cc1 is greater than or equal to 1 nM
Key: 0 (no)

Exercise: Determine whether measured PGE2 EC50 with compound meets or exceeds 1 nM for CCOC(=O)C1=C(N)OC(C)=C(C#N)C1c1ccco1 (stereo not given)
Key: 1 (yes)

Exercise: Assess whether reported PGE2 EC50 with compound for CCC(C)(C(=O)NC1CCCCC1)N(C(=O)C1CCC(=O)N1)c1ccccc1 (stereo not given) sits at 1 nM or higher.
Key: 1 (yes)

Exercise: Quick check: does CC1(C)C=Cc2c(c3c(c4c(=O)c(-c5ccc(O)cc5)coc24)OC(C)(C)CC3)O1 have PGE2 EC50 with compound greater than or equal to 1 nM?
Key: 1 (yes)

Exercise: Determine whether this molecule has PGE2 EC50 with compound no lower than 1 nM: Oc1c(Cl)cc(Cl)cc1Sc1cc(Cl)cc(Cl)c1O
Key: 0 (no)

Exercise: Please tell me: is the molecule CC1(C)Cc2nc3sc4c(SCC(=O)NC(c5ccccc5)c5ccccc5)ncnc4c3cc2CO1 at or over 1 nM in terms of PGE2 EC50 with compound?
Key: 1 (yes)

Exercise: Assess whether reported PGE2 EC50 with compound for O=S(=O)(c1ccccc1)N(Cc1nc(-c2ccccc2)no1)C1CCCCC1 sits at 1 nM or higher.
Key: 1 (yes)

Exercise: Does CC(C)CCn1c(=O)c2ccccc2c2ccccc2c1=O have a reported PGE2 EC50 with compound of at least 1 nM?
Key: 1 (yes)

Exercise: Say whether O=C(O)COc1ccc(/C=C/c2ccc3cccc([N+](=O)[O-])c3n2)cc1 shows PGE2 EC50 with compound of 1 nM or more.
Key: 1 (yes)

Exercise: Confirm if PGE2 EC50 with compound reported for the molecule CCN(CC)c1nc(C#N)nc(N(CC)CC)n1 is 1 nM or above.
Key: 0 (no)

Exercise: Reported PGE2 EC50 with compound reaches at least 1 nM for CN(Cc1ccccc1)c1nc2c(c(=O)[nH]c(=O)n2C)n1Cc1ccccc1Cl ?
Key: 1 (yes)

Exercise: Answer whether PGE2 EC50 with compound of CC[C@@H]1C(=O)OC[C@@H]1Cc1cncn1C is greater than or equal to 1 nM.
Key: 1 (yes)

Exercise: State whether the measured PGE2 EC50 with compound reaches 1 nM, counting equality as reaching it, for CCOC(=O)c1c(NC(=O)CSc2ncnc3[nH]ncc23)sc2c1CCC(C)C2 (stereo not given)
Key: 0 (no)

Exercise: Could you verify whether the entry CCOc1ccc(Cc2n[nH]c(=S)n2Cc2ccccc2)cc1 shows PGE2 EC50 with compound of no less than 1 nM?
Key: 0 (no)

Exercise: Quick check: does O=[N+]([O-])c1ccc(Cl)c2c1C1C=CCC1C(c1ccccn1)N2 (stereo not given) have PGE2 EC50 with compound greater than or equal to 1 nM?
Key: 0 (no)

Exercise: Reported PGE2 EC50 with compound reaches at least 1 nM for CSc1nc(Oc2ccc(F)cc2)c2ccccc2n1 ?
Key: 0 (no)

Exercise: Say whether CN(Cc1cc(Br)cc(Br)c1O)Cc1c(O)ccc2ccccc12 shows PGE2 EC50 with compound of 1 nM or more.
Key: 1 (yes)

Exercise: Assess whether reported PGE2 EC50 with compound for CCOC(=O)c1c(N)nn(C(=O)c2ccccc2)c1-c1ccccc1 sits at 1 nM or higher.
Key: 1 (yes)

Exercise: Dear colleague, could you confirm whether CC[C@@H]1Cc2cc(O)ccc2C2=C1c1ccc(O)cc1C[C@H]2CC has PGE2 EC50 with compound at or above 1 nM?
Key: 0 (no)

Exercise: Could you tell me if the measured PGE2 EC50 with compound of CCOc1ccc(OCC)c(NC(=O)CN2CCN(c3cc(C)ccc3C)CC2)c1 reaches 1 nM or more?
Key: 0 (no)

* * *

- target.desc: Prostaglandin E2 receptor EP2 subtype (Homo sapiens) (UniProt P43116)
- test.name: EP2 receptor modulators, dose response, cell-based, human EP2, PGE2 EC50 shift (AID 1421)
- assay.context: EP2-expressing cells, PGE2 EC50 shift by compound; measured here: PGE2 EC50 at 6.7 uM compound
Exam item: assign True to entries whose PGE2 EC50 with compound is below 1 nM and False to entries at or above 1 nM. Note that a value of exactly 1 nM receives False.

Exercise: Strictly below 1 nM in PGE2 EC50 with compound? CCOC(=O)C1=NN(c2cccc(C)c2)C2(S1)SC(C(C)=O)=C(C)N2c1ccccc1 (configuration not stated)
Key: True

Exercise: Is 1 nM strictly greater than the molecule's reported PGE2 EC50 with compound? molecule: CCOC(=O)c1c(-c2ccccc2)oc2ccc(OC)cc12
Key: False

Exercise: Could you please tell me whether PGE2 EC50 with compound recorded for COc1ccc(OC)c(/C=C/C(=O)N2CCCc3ccccc32)c1 is less than 1 nM?
Key: False

Exercise: Hi there! Is PGE2 EC50 with compound for COC(=O)c1c(-c2ccc(F)cc2)csc1NC(=O)C1CCCO1 (configuration not stated) below 1 nM, do you know?
Key: False

Exercise: Hello, is PGE2 EC50 with compound of the following molecule strictly smaller than 1 nM? O=c1[nH]c(=S)c2c(n1-c1ccccc1)CCC2
Key: False

Exercise: Here's an entry: COc1ccc(-c2cc(-c3n[nH]c(=S)n3-c3cccc4ccccc34)[nH]n2)cc1 . Is its PGE2 EC50 with compound below 1 nM?
Key: False

Exercise: Problem: For the molecule CN(C)c1nc(-c2ccccc2)c2cnn(Cc3ccccc3)c2n1 , is PGE2 EC50 with compound under 1 nM?
Key: False

Exercise: Does the reported PGE2 EC50 with compound of the following molecule sit strictly below 1 nM? C#CCn1c(S(=O)(=O)Cc2ccc(F)cc2)nc(-c2ccccc2)c1-c1ccccc1
Key: True

Exercise: For this molecule, is PGE2 EC50 with compound lower than 1 nM? CC(C)c1nc(Cl)c(C#N)c2c1CSC(C)(C)C2
Key: True

Exercise: Determine if CN(c1ccccc1)C1CCCCC1NS(=O)(=O)c1ccc(Cl)cc1 (configuration not stated) shows PGE2 EC50 with compound strictly lower than 1 nM.
Key: False

Exercise: hey, is PGE2 EC50 with compound for O=C(O)/C=C/c1ccccc1Oc1ccc(Cl)cc1Cl lower than 1 nM or not?
Key: False

Exercise: Strictly below 1 nM: is that where PGE2 EC50 with compound of CSc1ccccc1NC(=O)CN(C)Cc1cccc(Cl)c1 sits?
Key: True
